Data provenance is patent US20240246940A1.

Test system: Ba/F3 cells expressing HER2 T798I
assay.overview: Transduced Ba/F3 cell proliferation inhibitory activity, HER2 T798I
Format: cell-based
condition: Mus musculus, BaF3, 72 hours
measurement.kind: GI50

See these solved cases before continuing.
**Q:** # lookup: Ba/F3 cells expressing HER2 T798I GI50, key = C=CC(=O)N1CCC(Oc2cc3c(Nc4cc(-c5cccs5)ccc4OC)ncnc3cc2OC)CC1
**A:** ≤ 50 nM

**Q:** # lookup: Ba/F3 cells expressing HER2 T798I GI50, key = C=CC(=O)N1CCC(Oc2cc3c(Nc4cc(-c5ccc(F)cc5F)ccc4OC)ncnc3cc2OC)CC1
**A:** 100 to 500 nM

**Q:** # lookup: Ba/F3 cells expressing HER2 T798I GI50, key = COc1cc2ncnc(Nc3cc(-c4ccc(F)cc4F)ccc3OC)c2cc1NC(=O)/C=C/[C@H]1CCCN1C
**A:** ≤ 50 nM

More entries:
**Q:** # lookup: Ba/F3 cells expressing HER2 T798I GI50, key = C=CC(=O)N1CCC(Nc2cc3c(Nc4cc(-c5ccco5)ccc4OC)ncnc3cc2OCC)CC1
**A:** 100 to 500 nM

**Q:** # lookup: Ba/F3 cells expressing HER2 T798I GI50, key = C=CC(=O)N1CCC(Oc2cc3c(Nc4cc(-c5ccco5)ccc4OC)ncnc3cc2OC)CC1
**A:** ≤ 50 nM
